# method summary: Cmax in monkey PBMC assessed as FNC-TP level at 1 mg/kg, po administered as single dose by LC-MS/MS analysis
# Type: ADME, organism-based, Macaca mulatta
# Design: dose 1 mg/kg, route oral
# test conditions: rhesus monkey, in vivo
result type: Cmax (nM)
Answers are plain numbers, in nM.

Input "[N-]=[N+]=N[C@]1(CO)O[C@@H](n2ccc(N)nc2=O)[C@@H](F)[C@@H]1O" . Output Cmax: 2.1

* * *

# method summary: Tmax in monkey plasma at 1 mg/kg, po administered as single dose by LC-MS/MS analysis
# Type: ADME, organism-based, Macaca mulatta
# test conditions: rhesus monkey
result type: Tmax (h)
One number for each entry, in h.

response.value for [N-]=[N+]=N[C@]1(CO)O[C@@H](n2ccc(N)nc2=O)[C@@H](F)[C@@H]1O [RO-0622] (field: Tmax) = 1

* * *

# method summary: AUC (0 to 24 hrs) in monkey plasma at 20 mg/kg, po administered as single dose by LC-MS/MS analysis
# Type: ADME, organism-based, Macaca mulatta
# Design: dose 20 mg/kg, time < 24 hr, route oral
# test conditions: rhesus monkey
result type: AUC(0-t) at 24 h (µM·h)
One number for each entry, in µM·h.

Briefly, AUC(0-t) at 24 h measured for "Nc1ccn([C@@H]2CS[C@H](CO)O2)c(=O)n1" : 395

* * *

# method summary: Tmax in monkey plasma at 20 mg/kg, po administered as single dose by LC-MS/MS analysis
# Assay type: ADME, organism-based, Macaca mulatta
# test conditions: rhesus monkey
result type: Tmax (h)
Give bare numbers, in h.

The recorded Tmax for Nc1ccn([C@@H]2CS[C@H](CO)O2)c(=O)n1 [LAMIVUDINE] is 1

* * *

For each of the compounds below, state its Kd.
# method summary: Binding affinity to HIV1 Vif and CBFbeta-ELOB-ELOC complex (unknown origin) by CM5 chip based assay
One number for each entry, in nM.

smiles repr | result type | units symbol | measured result
[N-]=[N+]=N[C@]1(CO)O[C@@H](n2ccc(N)nc2=O)[C@@H](F)[C@@H]1O | Kd | nM | 87

For reference, reported Kd for "Nc1ccn([C@@H]2CS[C@H](CO)O2)c(=O)n1" stands at 1510

* * *

# method summary: Tmax in monkey plasma at 6 mg/kg, po administered as single dose by LC-MS/MS analysis
# Assay type: ADME, organism-based, Macaca mulatta
# test conditions: rhesus monkey
result type: Tmax (h)
Give bare numbers, in h.

Short answer for [N-]=[N+]=N[C@]1(CO)O[C@@H](n2ccc(N)nc2=O)[C@@H](F)[C@@H]1O [RO-0622] : Tmax was 1

* * *

# method summary: Cmax in monkey PBMC assessed as 3TC-TP level at 20 mg/kg, po administered as single dose by LC-MS/MS analysis
# Format: ADME, organism-based, Macaca mulatta
# Parameters: dose 20 mg/kg, route oral
# test conditions: rhesus monkey, in vivo
result type: Cmax
Remember to follow the number with its unit.

Record "Nc1ccn([C@@H]2CS[C@H](CO)O2)c(=O)n1" . Reported Cmax: 0.03 nM

* * *

# method summary: Cmax in monkey plasma at 6 mg/kg, po administered as single dose by LC-MS/MS analysis
# Format: ADME, organism-based, Macaca mulatta
# Parameters: dose 6 mg/kg, route oral
# test conditions: rhesus monkey
result type: Cmax (nM)
Give bare numbers, in nM.

The measured Cmax associated with [N-]=[N+]=N[C@]1(CO)O[C@@H](n2ccc(N)nc2=O)[C@@H](F)[C@@H]1O [RO-0622] reads 2070

// data source = ChEMBL document CHEMBL4619799
